Data origin: PubChem BioAssay AID1565

studySystem: Phosphoethanolamine/phosphocholine phosphatase (Homo sapiens) (UniProt Q8TCT1)
Sequence (Q8TCT1 whole entry, looked up): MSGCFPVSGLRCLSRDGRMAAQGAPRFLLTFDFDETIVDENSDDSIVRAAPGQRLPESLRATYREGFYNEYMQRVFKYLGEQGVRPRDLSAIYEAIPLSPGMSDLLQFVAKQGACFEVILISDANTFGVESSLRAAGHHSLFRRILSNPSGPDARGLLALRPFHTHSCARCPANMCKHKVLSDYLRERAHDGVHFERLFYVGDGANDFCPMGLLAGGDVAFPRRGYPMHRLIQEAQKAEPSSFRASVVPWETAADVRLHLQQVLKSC
methodNotes: PubChem AID 1565
experimentalConditions: recombinant PHOSPHO1, absorbance phosphatase assay; at 13.3 µM; hits give high values
The campaign covered roughly 290,000 compounds. About 3,200 (1.1%) were called active. What follows is part of a selection rich in actives, with near analogues and random picks from the rest.

smilesRecord	inhibition
O=c1c2ccccc2nc(-c2ccco2)n1-c1ccc(Br)cn1	-3.3% (inactive)
O=c1[nH]c(CN2CC=C(c3ccccc3)CC2)nc2scc(-c3cccs3)c12	50.8% (inactive)
O=c1c2ccccc2nc(-c2ccccc2)n1-c1ccccn1	32.4% (inactive)
O=c1c2ccccc2nc(/C=C/c2ccc(F)cc2)n1-c1ccccc1O	38.1% (inactive)
